# SYSTEM_UNDER_TEST: Proto-oncogene tyrosine-protein kinase Src (Homo sapiens, UniProt P12931)
# Sequence (P12931 2-536 limits assumed): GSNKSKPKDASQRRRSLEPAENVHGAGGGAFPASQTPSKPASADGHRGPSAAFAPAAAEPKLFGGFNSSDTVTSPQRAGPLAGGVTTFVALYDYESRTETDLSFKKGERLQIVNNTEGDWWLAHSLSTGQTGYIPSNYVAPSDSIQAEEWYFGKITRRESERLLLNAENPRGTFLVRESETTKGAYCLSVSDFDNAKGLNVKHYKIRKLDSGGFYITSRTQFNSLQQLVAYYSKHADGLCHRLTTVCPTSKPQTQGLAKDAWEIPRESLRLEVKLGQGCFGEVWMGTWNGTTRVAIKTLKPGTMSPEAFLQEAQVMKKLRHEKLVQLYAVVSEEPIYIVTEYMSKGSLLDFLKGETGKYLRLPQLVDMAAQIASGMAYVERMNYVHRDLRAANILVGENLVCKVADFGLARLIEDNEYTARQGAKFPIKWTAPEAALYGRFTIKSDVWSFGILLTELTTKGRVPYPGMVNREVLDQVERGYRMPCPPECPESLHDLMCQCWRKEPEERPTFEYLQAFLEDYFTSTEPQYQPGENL
# ASSAY_NAME: Selectivity for Src SH2 domain compared to Cys188Ala Src SH2 domain mutants
Activity calls are given as the source filed them. No cut-off for these calls is given here.
READOUT_LABEL: Selectivity

CC[C@H](C)[C@H](NC(=O)[C@H](CCC(=O)O)NC(=O)[C@H](CCC(=O)O)NC(=O)CCc1ccc(C(=O)C(O)(O)C(=O)OC)cc1)C(N)=O = Active
COC(=O)C(O)(O)C(=O)c1ccccc1 = Active
COC(=O)C(=O)C(=O)c1ccc(CC(NC(C)=O)C(=O)N[C@@H](CCC(=O)O)C(=O)N[C@H](C(=O)N[C@@H](CC(C)C)C(N)=O)[C@@H](C)O)cc1 (stereo partly drawn) = Active
